This collection of values is drawn from patent US20140336187A1.

System: L. donovani
Assay: In vivo visceral leishmaniasis BALB/c mouse model: liver and spleen parasite burden (LDUs)
Parameters: species or system BALB/c mice
Conditions: 20 mg/kg; compared to untreated controls
Method: Balb/c mice 10-11 weeks old were infected with L. donovani inoculated subcutaneously (SC) at the base of the tail (maximum 0.2 ml) with 1×10^6 freshly harvested promastigotes. […] Seven days after infection, a mouse was sacrificed, and parasitic burden assessed based on microscopic enumeration of amastigotes (Leishman donovan bodies) against host cell nuclei on liver and spleen impression smears (Stauber et al., 1958). […]
assayMetric: Parasite Suppression (%)--Liver (reduction in parasite burden)
Record the value in %, omitting the unit from your answer.

Example results:
• CCCC(=O)N(C(=O)CCC)C1=C(Cl)C(=O)c2ccccc2C1=O = 69.57
• NC1=C(Br)C(=O)c2ccccc2C1=O = 44.34
• O=C1C(Cl)=C(N(C(=O)c2cccc(Cl)c2)C(=O)c2cccc(Cl)c2)C(=O)c2ccccc21 = 50.04

Let us move to another entry and its Parasite Suppression (%)--Liver (reduction in parasite burden).
Please look up its Parasite Suppression (%)--Liver (reduction in parasite burden): C[C@@H]1[C@H](O)[C@@H](C)/C=C/C=C/C=C/C=C/C=C/C=C/C=C/[C@H](O[C@@H]2O[C@H](C)[C@@H](O)[C@H](N)[C@@H]2O)C[C@@H]2O[C@](O)(C[C@@H](O)C[C@@H](O)[C@H](O)CC[C@@H](O)C[C@@H](O)CC(=O)O[C@H]1C)C[C@H](O)[C@H]2C(=O)O [Am. B., Amphotericin B, reference compound] 33.47

* * *

System: L. donovani promastigotes
Assay: Dose and time-dependent inhibitory effect on L. donovani promastigotes (2, 4, 6, 24 hours exposure)
Format: cell-based, Leishmania donovani
Conditions: Leishmania donovani; promastigotes; 6 hours exposure; means ± S.E.; read-out: Antileishmanial Activity IC50 (μM) 6 hours
Procedure: The Leishmanicidal properties of fifteen naphthoquinone compounds (FIG. 1) on L. donovani promastigotes proliferation were assessed by the resazurin cell viability assay. […] Decrease in fluorescence (inhibition), were expressed as percentage of the fluorescence of control cultures and were plotted against the concentrations of compounds. The IC50 values were calculated from the sigmoidal inhibition curves. […]
In plain terms, low IC50, meaning strictly below 20 µM, gives met, and everything else gives not met.

Answered examples (3):
• COc1ccc(C(=O)N(C(=O)c2ccc(OC)cc2)C2=C(Cl)C(=O)c3ccccc3C2=O)cc1 = not met
• O=C1C(Br)=C(N(C(=O)c2ccccc2Cl)C(=O)c2ccccc2Cl)C(=O)c2ccccc21 = met
• COc1cc(C(=O)N(C(=O)c2cc(OC)c(OC)c(OC)c2)C2=C(Cl)C(=O)c3ccccc3C2=O)cc(OC)c1OC = met

I wonder whether O=C1C(Cl)=C(N(C(=O)c2ccc(F)cc2)C(=O)c2ccc(F)cc2)C(=O)c2ccccc21 has IC50 below 20 µM. Can you tell? met

Next molecule: O=C1C(Cl)=C(N(C(=O)c2ccc(Cl)cc2)C(=O)c2ccc(Cl)cc2)C(=O)c2ccccc21 met

* * *

The following compounds are shown together with reported IC50 values.
Test system: L. donovani promastigotes
Test: Antileishmanial activity on L. donovani promastigotes (resazurin cell viability assay)
Assay type: cell-based, Leishmania donovani
Conditions: Leishmania donovani, read-out: IC50 (μM) Promastigotes, L. donovani promastigotes; resazurin assay; 0.03 to 44 μM; means ± S.E. of three experiments
Quick note: give the figure in µM, leave out the unit.

* O=C1C(Cl)=C(N(C(=O)c2cccc(Cl)c2)C(=O)c2cccc(Cl)c2)C(=O)c2ccccc21 | 6.81

For the next question, use this compound.
Which IC50 value is on record for NC1=C(Br)C(=O)c2ccccc2C1=O ? 4.3
